- Tested on: full length human vWF binding to lyophilized platelets
- Assay method text: Full length human von Willebrand Factor platelet binding assay (FACS)
- Format: cell-based
- Experimental parameters: 5 nM full length human vWF, lyophilized platelets, botrocetin; units in the cell: lower bound pM, upper bound nM; read-out: Inhibition of full length hVWF binding in FACS assay, IC50 range
Oligonucleotides are written 5' to 3', each unit as a sugar letter and its base; * is a phosphorothioate linkage, no mark a phosphodiester; rarer units and linkages stand in square brackets, end groups in braces. Plain capitals give the bases only. d = 2'-deoxy (DNA); r = 2'-OH (RNA); f = 2'-fluoro

Substance	Experimental system	IC50
GGAGCCACACGACATTGGCGGGTTGTAATTACCACGCATGGCTCC (rGrGrArGdCdCrAdCrAdCrGrAdCrAdTdTrGrGdCrGrGrGdTdTrGdTrArAdTdTrAdCdCrAdCrGdCrAdTrGrGdCdTdCdC) [SEQ ID NO 189, minimized rRdY aptamer]	full length human vWF binding to lyophilized platelets	564 to 1600 pM
GGAGCGCACTCAGCCACACGACATTGGCGGGTTGTAATTACCACGCATGGCTG (chemistry not given here) [SEQ ID NO 186, minimized rRdY aptamer]	full length human vWF binding to lyophilized platelets	971 to 2200 pM
dGCGTGCAGTGCCT-[PEG]-AGGCCGTGCGGTGCCTCCGTCACGCC-3T (DNA GCGTGCAGTGCCTAGGCCGTGCGGTGCCTCCGTCACGCCT; chemistry not fully specified) [ARC1028, minimized DNA aptamer]	full length human vWF binding to lyophilized platelets	473 to 2700 pM
GGAGCGCACUCAGCCACCCUCGCAAGCAUUUUAAGAAUGACUUGUGCCGCUGGCU G (rGrGrArGfCrGfCrAfCfUfCrArGfCfCrAfCfCfCfUfCrGfCrArArGfCrAfUfUfUfUrArArGrArAfUrGrAfCfUfUrGfUrGfCfCrGfCfUrGrGfCfUrG) [SEQ ID NO 165, minimized rRfY aptamer]	full length human vWF binding to lyophilized platelets	562 to 14400 pM
GGACCACCCUCGCAAGCAUUUUAAGAAUGACUUGUGCCGCUGGUCC (rGrGrAfCfCrAfCfCfCfUfCrGfCrArArGfCrAfUfUfUfUrArArGrArAfUrGrAfCfUfUrGfUrGfCfCrGfCfUrGrGfUfCfC) [SEQ ID NO 169, minimized rRfY aptamer]	full length human vWF binding to lyophilized platelets	103 to 17000 pM

----------
Reported values of % binding @ 100 nM vWF for individual entries
- Tested on: full length human vWF (SEQ ID NO 7)
- Assay method text: dot blot KD determination and extent of binding, full length human vWF;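 note: dot blot binding of aptamers to full length human vWF across a protein titration, incubated 30 minutes at room temperature in 1x DPBS with BSA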
- Experimental parameters: Phase 1 modification; extent of aptamer binding at 100 nM full length human vWF
Oligonucleotides are written 5' to 3', each unit as a sugar letter and its base; * is a phosphorothioate linkage, no mark a phosphodiester; rarer units and linkages stand in square brackets, end groups in braces. Plain capitals give the bases only. [invdT] = inverted (3'-3') thymidine; d = 2'-deoxy (DNA); m = 2'-O-methyl

Substance	Experimental system	% binding @ 100 nM vWF [%]
ARC1212: ARC1172 with one residue replaced by 2'-O methyl residue (DNA dGdGdCdGdTdGdCdAdGdTdGdCdCdTdTdCdGdGmCdCdGdTdGdCdGdGdTdGdCdCdTdCdCdGdTdCdAdCdGdCdC[invdT]; aptamer)	full length human vWF (SEQ ID NO 7)	49
ARC1229: ARC1172 with one residue replaced by 2'-O methyl residue (dGdGdCdGdTdGdCdAdGdTdGdCdCdTdTdCdGdGdCdCdGdTdGdCdGdGdTdGdCdCdTdCdCdGdTmCdAdCdGdCdC[invdT]; aptamer)	full length human vWF (SEQ ID NO 7)	37
ARC1201: ARC1172 with one residue replaced by 2'-O methyl residue (DNA dGdGdCdGdTdGdCmAdGdTdGdCdCdTdTdCdGdGdCdCdGdTdGdCdGdGdTdGdCdCdTdCdCdGdTdCdAdCdGdCdC[invdT]; aptamer)	full length human vWF (SEQ ID NO 7)	6
